molecular target: FAP (Homo sapiens, UniProt Q12884); assay: Affinity to FAP (IC50); format: biochemical; conditions: selectivity FAP over PREP
Sequence (Q12884 whole entry): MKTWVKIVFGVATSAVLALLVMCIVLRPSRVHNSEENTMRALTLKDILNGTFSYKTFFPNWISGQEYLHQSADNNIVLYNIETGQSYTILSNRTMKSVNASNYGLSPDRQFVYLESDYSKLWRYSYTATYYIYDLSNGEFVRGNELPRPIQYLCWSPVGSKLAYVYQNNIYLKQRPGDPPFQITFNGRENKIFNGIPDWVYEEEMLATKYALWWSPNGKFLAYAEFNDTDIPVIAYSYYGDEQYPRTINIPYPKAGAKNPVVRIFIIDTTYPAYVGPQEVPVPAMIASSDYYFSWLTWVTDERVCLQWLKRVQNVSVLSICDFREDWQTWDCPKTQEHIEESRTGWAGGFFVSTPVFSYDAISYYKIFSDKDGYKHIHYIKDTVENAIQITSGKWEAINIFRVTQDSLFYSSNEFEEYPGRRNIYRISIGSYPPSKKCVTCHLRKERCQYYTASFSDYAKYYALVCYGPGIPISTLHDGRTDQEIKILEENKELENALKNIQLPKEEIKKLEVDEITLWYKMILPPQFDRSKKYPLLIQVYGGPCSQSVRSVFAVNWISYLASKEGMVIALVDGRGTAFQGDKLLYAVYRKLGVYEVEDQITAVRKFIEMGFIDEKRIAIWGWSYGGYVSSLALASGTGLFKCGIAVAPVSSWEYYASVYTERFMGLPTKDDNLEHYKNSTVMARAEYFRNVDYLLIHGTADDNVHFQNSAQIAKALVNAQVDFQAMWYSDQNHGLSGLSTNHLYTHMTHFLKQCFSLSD
observable: S = PREP IC50/FAP IC50

Here's what some known entries look like.
CN(CC(=O)O)C1(CCCCC(=O)N2CCN(CC(=O)NCCCCOc3ccc4nccc(C(=O)NCC(=O)N5CC(F)(F)C[C@H]5C#N)c4c3)CC2)CN(CC(=O)O)CCN(CC(=O)O)C1 [Compound (B)] : 5.6 × 10^3
CN(CC(=O)O)C1(CCCCC(=O)NCCCCOc2ccc3nccc(C(=O)NCC(=O)N4CC(F)(F)C[C@H]4C#N)c3c2)CN(CC(=O)O)CCN(CC(=O)O)C1 [Compound (A)] : 23.7 × 10^3
CN(CC(=O)O)C1(CCCCC(=O)N[C@H]2CCN(CC(=O)NCCCCOc3ccc4nccc(C(=O)NCC(=O)N5CC(F)(F)C[C@H]5C#N)c4c3)C2)CN(CC(=O)O)CCN(CC(=O)O)C1 [(D)] : 11.8 × 10^3

Next compound, S = PREP IC50/FAP IC50 to be filled in.
Q) Query S = PREP IC50/FAP IC50 on FAP (Homo sapiens, UniProt Q12884) for CN(CC(=O)NCCCCOc1ccc2nccc(C(=O)NCC(=O)N3CC(F)(F)C[C@H]3C#N)c2c1)[C@H]1CCN(C(=O)CCCCC2(N(C)CC(=O)O)CN(CC(=O)O)CCN(CC(=O)O)C2)C1 [(E)]
A) 8.4 × 10^3

* * *

target: FAP (Homo sapiens); assay: Affinity to FAP (IC50); assay type: biochemical; settings: selectivity factor relative to UAMC1110
observable: SF = S relative to UAMC1110
Reply with the value as a number alone.

Q) Look up SF = S relative to UAMC1110 for this compound: CN(CC(=O)NCCCCOc1ccc2nccc(C(=O)NCC(=O)N3CC(F)(F)C[C@H]3C#N)c2c1)[C@H]1CCN(C(=O)CCCCC2(N(C)CC(=O)O)CN(CC(=O)O)CCN(CC(=O)O)C2)C1 [(E)]
A) 2.0

Q) Look up SF = S relative to UAMC1110 for this compound: `CN(CC(=O)O)C1(CCCCC(=O)NCCCCOc2ccc3nccc(C(=O)NCC(=O)N4CC(F)(F)C[C@H]4C#N)c3c2)CN(CC(=O)O)CCN(CC(=O)O)C1`
A) 5.6

Q) Look up SF = S relative to UAMC1110 for this compound: `CN(CC(=O)O)C1(CCCCC(=O)N[C@H]2CCN(CC(=O)NCCCCOc3ccc4nccc(C(=O)NCC(=O)N5CC(F)(F)C[C@H]5C#N)c4c3)C2)CN(CC(=O)O)CCN(CC(=O)O)C1`
A) 2.8

Q) Look up SF = S relative to UAMC1110 for this compound: `CN(CC(=O)O)C1(CCCCC(=O)N2CCN(CC(=O)NCCCCOc3ccc4nccc(C(=O)NCC(=O)N5CC(F)(F)C[C@H]5C#N)c4c3)CC2)CN(CC(=O)O)CCN(CC(=O)O)C1`
A) 1.3
